study-system: Hexose transporter 1 (Plasmodium falciparum) (UniProt O97467)
procedure-details: ST_JUDE_LEISH: Cytotoxicity at 2uM final concentration against transgenic Leishmania Mexicana promastigotes LmPfHT that are glucose transport deficient and complemented with the Plasmodium falciparum hexose transporter. Activity is measured by DNA content using SYBR green in vitro
Type: functional
assay-readout: inhibition (%)
# value in %; strip the unit string

[[record]]
compound = "Cc1ccc(C(=O)Nc2ccc(OC3CCN(CCC(C)C)C3)c(Cl)c2)cc1 (stereo not given)"
reported_result = 4.8


Query: Entry COc1ccc(C2(CNCC(O)c3cccc([N+](=O)[O-])c3)CCCCC2)cc1OC (stereo not given) , system Hexose transporter 1 (Plasmodium falciparum) (UniProt O97467): what inhibition was measured?
Reply: 2.95

Query: State its inhibition on Hexose transporter 1 (Plasmodium falciparum) (UniProt O97467): `c1ccc(Oc2ccc(Nc3ccnc4cc(-c5csc(CN6CCCCC6)n5)ccc34)cc2)nc1`
Reply: 1.27

Query: Request: inhibition, test system Hexose transporter 1 (Plasmodium falciparum) (UniProt O97467), entry `OCCN1CCN(Cc2ccc(-c3cccc(-c4nc5cc(F)ccc5[nH]4)c3)cc2)CC1`
Reply: -0.2

Query: Notebook: pull reported inhibition for Hexose transporter 1 (Plasmodium falciparum) (UniProt O97467), entry `CC(C)(C)c1cc(NC(=O)c2ccc(Cl)c([N+](=O)[O-])c2)cc(C(C)(C)C)c1`
Reply: 6.88

Query: Kindly state the measured inhibition obtained for O=C(Nc1ccc(Br)cc1)N(CCN1CCOCC1)CC(O)COc1ccc(Cl)c(F)c1 (stereo not given) with Hexose transporter 1 (Plasmodium falciparum) (UniProt O97467).
Reply: -1.53

Query: Param readout= inhibition; system= Hexose transporter 1 (Plasmodium falciparum) (UniProt O97467); entry= `O=C(Nc1ccc(Cl)cc1)N1CCN(C2CCCCC2)CC1` ; returns value.
Reply: 2.78

Query: Write down the reported inhibition of `Cc1nccc2c(NC(=O)N[C@@H]3CCN(c4ncc(C(F)(F)F)cc4Br)C3)cccc12` , test system: Hexose transporter 1 (Plasmodium falciparum) (UniProt O97467).
Reply: 1.71

Query: Lookup: inhibition / Hexose transporter 1 (Plasmodium falciparum) (UniProt O97467) / CCN(CC)CCCC(C)Nc1ccnc2[nH]c3ccccc3c12 (stereo not given)
Reply: 6.62

Query: Enter reported inhibition observed with Hexose transporter 1 (Plasmodium falciparum) (UniProt O97467) for `CC1(C)NC(N)=NC(=N)N1OCc1cc(Cl)cc2c1OCOC2`
Reply: -0.07

Query: Any idea what inhibition came out for `COc1ccc(C2=C(Nc3ccc4oc5ccccc5c4c3)c3ccccc3C2=O)cc1` on Hexose transporter 1 (Plasmodium falciparum) (UniProt O97467)?
Reply: -0.17

###

In this section, each of the molecules is paired with its reported inhibition.
study-system: Glucose transporter (Leishmania mexicana) (UniProt O61059)
procedure-details: ST_JUDE_LEISH: Cytotoxicity at 2uM final concentration against transgenic Leishmania Mexicana promastigotes LmGT2 that are glucose transport deficient and complemented with the L. Mexicana glucose transporter 2. Activity is measured by DNA content using SYBR green in vitro
Assay type: functional

// worked examples, inhibition included
[[record]]
molecule = "CCN(CC)CCCCNc1cc(-c2[nH]c(C(C)(C)C)nc2-c2ccc3cc(OC)ccc3c2)ccn1"
assay_readout = "inhibition"
reported_result = "1.94%"

[[record]]
molecule = "c1ccc(CN2CCC(NCc3ccc(-c4ccc(CNC5CCCC5)cc4)cc3)CC2)cc1"
assay_readout = "inhibition"
reported_result = "0.48%"

[[record]]
molecule = "COc1ccc(-c2ccnc(-c3cccc(-c4ccccn4)n3)c2)cc1"
assay_readout = "inhibition"
reported_result = "2.98%"


Query: Report inhibition for `CCOC(=O)N1CCN(CCCNc2c3ccccc3nc3ccccc23)CC1` tested on Glucose transporter (Leishmania mexicana) (UniProt O61059).
Reply: 1.91%

Query: Fill in the recorded inhibition for this molecule, with Glucose transporter (Leishmania mexicana) (UniProt O61059) as test system: `COc1ccc(C)cc1NC(=O)CSc1nc2cccnc2n1C1CCCCC1`
Reply: 3.28%

Query: Param readout = inhibition; param system = Glucose transporter (Leishmania mexicana) (UniProt O61059); param query = `Cc1cc(Nc2ccc(C(C)(C)C)cc2)c2[nH]ncc2n1` ; response: value
Reply: 4.28%

Query: Provide the documented inhibition with Glucose transporter (Leishmania mexicana) (UniProt O61059) as the system for `CCn1ncc(Cl)c1CN(C)S(=O)(=O)c1ccc2ccccc2c1`
Reply: 6.31%

Query: Which inhibition is reported with Glucose transporter (Leishmania mexicana) (UniProt O61059) for this entry: `O=C(Nc1cccc(CN2CCCN(Cc3ncc[nH]3)CC2)c1)c1ccc2ccccc2c1` ?
Reply: 1.4%
